- TESTED_TARGET: 3-hydroxyacyl-CoA dehydrogenase type-2 (Homo sapiens)
- EXPERIMENT_DESCRIPTION: Inhibition of recombinant 17beta-HSD10 (unknown origin) using ALLOP as substrate and NAD+ as cofactor preincubated for 5 mins followed by substrate addition and measured after 20 mins by fluorometric assay
ASSAY_ENDPOINT: IC50

- SMI: "O=C(Nc1ccc(O)c(C(F)(F)F)c1)Nc1nc2ccc(C(=O)O)cc2s1"
  IC50: "250 nM"

Which value of IC50 has been reported for `NC(=O)Nc1ccc2nc(NC(=O)Nc3ccc(O)c(Cl)c3)sc2c1` in the records?
330 nM

Try this molecule too: `O=C(Nc1ccc(O)c(Cl)c1)Nc1nc2ccc(-c3nnn[nH]3)cc2s1`
95 nM

###

- TESTED_TARGET: 3-hydroxyacyl-CoA dehydrogenase type-2 (Homo sapiens, UniProt Q99714)
- Sequence (Q99714 whole entry): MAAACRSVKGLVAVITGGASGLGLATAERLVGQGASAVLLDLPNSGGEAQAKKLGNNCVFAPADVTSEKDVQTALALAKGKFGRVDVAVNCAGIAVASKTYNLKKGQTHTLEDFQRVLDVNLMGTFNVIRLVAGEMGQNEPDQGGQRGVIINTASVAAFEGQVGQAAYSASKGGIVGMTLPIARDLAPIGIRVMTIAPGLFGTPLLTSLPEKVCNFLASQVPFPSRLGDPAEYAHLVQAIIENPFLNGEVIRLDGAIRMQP
- EXPERIMENT_DESCRIPTION: Inhibition of recombinant 17beta-HSD10 (unknown origin) using E2 as substrate and NAD+ as cofactor preincubated for 5 mins followed by substrate addition and measured after 20 mins by fluorometric assay
ASSAY_ENDPOINT: IC50
Quick note: number first, unit second.

- SMI: "O=C(Nc1ccc(O)c(Cl)c1)Nc1nc2ccc(C(=O)O)cc2s1"
  IC50: "1810 nM"

Which value of IC50 has been reported for `CC(=O)Nc1ccc2nc(NC(=O)Nc3ccc(O)c(Cl)c3)sc2c1` in the records?
1150 nM

###

- TESTED_TARGET: 3-hydroxyacyl-CoA dehydrogenase type-2 (Homo sapiens, UniProt Q99714)
- EXPERIMENT_DESCRIPTION: Mixed type inhibition of recombinant 17beta-HSD10 (unknown origin) using E2 as substrate and NAD+ as cofactor preincubated for 5 mins followed by substrate addition and measured after 20 mins by fluorometric assay
ASSAY_ENDPOINT: pIC50
Worth noting: pIC50 values are minus log10 of concentrations stated in mol/L.

Illustrative cases are given below, each with its answer.
- SMI: "O=C(Nc1ccc(O)c(Cl)c1)Nc1nc2ccc(-c3nnn[nH]3)cc2s1"
  pIC50: 6.39
- SMI: "NC(=O)Nc1ccc2nc(NC(=O)Nc3ccc(O)c(Cl)c3)sc2c1"
  pIC50: 6.57

Next molecule, pIC50 to be filled in.
Which value of pIC50 has been reported for `O=C(Nc1ccc(O)c(C(F)(F)F)c1)Nc1nc2ccc(C(=O)O)cc2s1` in the records?
6.47
